Catalogue of pIC50 readings, one per entry.
Experimental System: UniProt P43405
pIC50: −log10 of the molar value.

Compound: Cn1cc(-c2nc(Nc3ccc(N4CCOCC4)cc3)c3[nH]ncc3n2)cn1 [Example 121]
pIC50: 7.00 to 8.00

Compound: O=C(O)c1cccc(-c2nc(Nc3cnn(C4CCOCC4)c3)c3[nH]ncc3n2)c1 [Example 217]
pIC50: 6.00 to 7.00

Compound: COCCn1cc(Nc2nc(-c3cccc(NS(C)(=O)=O)c3)nc3cn[nH]c23)cn1 [Example 265]
pIC50: 6.00 to 7.00

Request: # input compound: O=C(c1ccc(Nc2nc(-c3ccco3)nc3cn[nH]c23)cc1F)N1CCOCC1 [Example 197] ; wanted: its pIC50
Result: 6.00 to 7.00
